Measurement target: pooled human IgG
The reader will find reported Enzyme Activity Endpoint Assay (purified): Fab'2 values listed item by item below.
Quantity measured: Enzyme Activity Endpoint Assay (purified): Fab'2 (ng/µL)

1. PRT-258 (protein) MVTSVWTKGVTPPTNFTYGEDVLHAPYVANQGWYDITKLFNGKDDLLCGAATAGNMLHWWFDQNKEQIENYLKKHPEKQKINFNGEQMFDVKEAIDTKDSQLDSKLFEYFLEKAFPYLSTKHLGVFPDHVIDMFINGYRLSLTNHGPTPVKRGSKDPRGGIFDAVFTRGDQSKLLTNRHDFKEKTLKEISDLIKQELTEGKALGISHTYANVRINHVINLWGADFDAEGNLEAIAVTDSDSNASIGMKKYFVGVNSSGKVAISAKEIEEDNIGAQVLGLFTLSTGQDIWNQTN
762
2. PRT-144 (protein) MANQEIRYSEVTPYHITSVWTKGVTPPANFTQGEDVFHAPYVANQGWYDITKTFNGKDDLLCGAATAGNMLHWWFDQNKDQIKRYLEEHPEKQKINFNGEQMFDVKEAIDTKNHQLDSKLFEYFKEKAFPYLSTKHLGVFPDHVIDMFINGYRLSLTNHGPTPVKEGSKDPRGGIFDAVFTRGDQSKLLTSRHDFKEKTLNDISQLIKQELQSGKALGLSHTYANVRINHVINLWGADFDAEGNLEAIYVTDSDSNASIGMKKYFVGKNSAGKVAISAKEIKEDNIGAQVLGLFTLSTGQDSWNQTN
562
3. PRT-122 (protein) MRNATEAYAKEVPKKITSVWTKGVTPLTPEQFIYQNEDVFHAPYLAHQGWYDITKTFNGKDNLLCGAATAGNMLHWWFDQNKEEIERYLSKHPEKQKIIFNNQELFDLKAAIDTKDSQTNSALFNYFRDKAFPNLSARQLGVMPDLVLDMFINGYYLNVTKTQSTDVNRPYQTKDKRGGIFDAVFTRGDQTKLLTERHDLKNKTLEEISQLIKQELTEGKALGLSHTYANVRISHVINLWGADFDAEGNLEAIYVTDSDSNASIGMKKYFVGVNASGKVAISAKKIEDDNIGAQVLGLFTLSSGKDIWEKLS
565
4. PRT-239 (protein) MEVVEVWPYGQNPNGKTEILSQTEDSESLQRLRDIEDFQAEKKMQNVVYTKWLDGVDVKDHDFRKIVDGGTAYYATPLLNGRGFYDINKDFNRDSLLCSAAVAANMFHYWLDINRDNVDRFLRQNPEKHGIIELPDGQLKLSDFLNTYESDHGYRDKSKLFDYISNNFNGGLWTDKLLDNYINGYGYNKKYGRTIEDPTKNTSKINFFKEVFNEKILTNNHQIRNQNEFSVLLSEALYTGKAIGLSYGPAGLRHSLGHIISVWGADLDADGNVVAIYVTDSDDKKLTIGDERVGLKRYKISTDDNNRLRLTAYEETHNTGGQIRGLWTLDTGKYAWADYFDKTEQTGTDQAEQLEHHHHHH
49
